The reported measurements were obtained from ChEMBL document CHEMBL1126131.

target: Estrogen receptor (Mus musculus) (UniProt O08537+P19785); assay: Uterotrophic effect in mice as uterine weight(mg) relative to body weight(g) at 10 ug dose; type: functional, tissue-based
Sequence (O08537 whole entry, looked up): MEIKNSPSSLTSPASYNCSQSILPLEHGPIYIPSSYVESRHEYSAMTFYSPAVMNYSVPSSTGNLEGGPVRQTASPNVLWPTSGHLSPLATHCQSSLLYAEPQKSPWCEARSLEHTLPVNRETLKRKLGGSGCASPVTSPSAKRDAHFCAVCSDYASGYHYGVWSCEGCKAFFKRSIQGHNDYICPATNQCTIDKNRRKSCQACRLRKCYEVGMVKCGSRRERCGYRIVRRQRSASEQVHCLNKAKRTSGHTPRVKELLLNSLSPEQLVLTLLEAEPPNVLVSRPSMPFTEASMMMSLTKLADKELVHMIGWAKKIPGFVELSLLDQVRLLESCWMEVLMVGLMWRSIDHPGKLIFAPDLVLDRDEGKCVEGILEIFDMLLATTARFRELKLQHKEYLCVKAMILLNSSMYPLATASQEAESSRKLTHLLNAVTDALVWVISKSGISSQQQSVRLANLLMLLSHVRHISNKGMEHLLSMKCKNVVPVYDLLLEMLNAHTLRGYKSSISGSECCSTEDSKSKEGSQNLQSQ
Sequence (P19785 whole entry, looked up): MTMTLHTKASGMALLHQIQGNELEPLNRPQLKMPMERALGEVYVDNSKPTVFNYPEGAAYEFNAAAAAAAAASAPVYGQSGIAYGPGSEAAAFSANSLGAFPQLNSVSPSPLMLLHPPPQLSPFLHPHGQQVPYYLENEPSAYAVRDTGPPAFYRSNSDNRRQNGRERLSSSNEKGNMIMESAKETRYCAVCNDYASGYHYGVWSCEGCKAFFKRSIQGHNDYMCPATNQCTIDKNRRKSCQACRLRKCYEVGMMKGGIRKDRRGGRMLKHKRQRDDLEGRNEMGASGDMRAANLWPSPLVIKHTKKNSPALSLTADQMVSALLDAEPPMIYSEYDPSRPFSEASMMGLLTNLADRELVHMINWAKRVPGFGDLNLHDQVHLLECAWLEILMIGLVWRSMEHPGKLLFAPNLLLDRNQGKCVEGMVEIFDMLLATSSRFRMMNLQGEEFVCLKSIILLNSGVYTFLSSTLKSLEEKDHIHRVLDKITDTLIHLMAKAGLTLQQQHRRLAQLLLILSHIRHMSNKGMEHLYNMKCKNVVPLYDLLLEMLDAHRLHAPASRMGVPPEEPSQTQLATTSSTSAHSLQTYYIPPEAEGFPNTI
endpoint: Relative uterus weight
Could you keep your reply to the number by itself?

CC(=O)Oc1ccc2c(c1)CC(C)n1c-2c(C=O)c2cc(OC(C)=O)ccc21 (stereo not given); 18.2

Given CCCCC1Cc2cc(OC(C)=O)ccc2-c2c(C=O)c3ccc(OC(C)=O)cc3n21 (stereo not given) , state its recorded Relative uterus weight. 13.7

Proceed to CCCCCC1Cc2cc(OC(C)=O)ccc2-c2c(C=O)c3ccc(OC(C)=O)cc3n21 (stereo not given) 16.6

Proceed to CCC1Cc2cc(OC(C)=O)ccc2-c2c(C=O)c3ccc(OC(C)=O)cc3n21 (stereo not given) 17.7

Proceed to CCCCCC1Cc2cc(OC(C)=O)ccc2-c2c(C=O)c3cc(OC(C)=O)ccc3n21 (stereo not given) 16

====

target: Estrogen receptor (Bos taurus) (UniProt Q9XSB5+P49884); assay: Relative binding affinity for calf uterine estrogen receptor compared to 17-beta-estradiol (E2); assay type: protein assay
Measured relative binding affinity (RBA) values are reported for all entries that follow.

Consider the reported relative binding affinity (RBA) for these compounds:
CCCCC1Cc2cc(OC(C)=O)ccc2-c2c(C=O)c3cc(OC(C)=O)ccc3n21 (stereo not given); 2.1
CCCCCC1Cc2cc(OC(C)=O)ccc2-c2c(C=O)c3cc(OC(C)=O)ccc3n21 (stereo not given); 1.9
CCCC1Cc2cc(OC(C)=O)ccc2-c2c(C=O)c3cc(OC(C)=O)ccc3n21 (stereo not given); 2.6

Given CCCCCC1Cc2cc(OC(C)=O)ccc2-c2c(C=O)c3ccc(OC(C)=O)cc3n21 (stereo not given) , state its recorded relative binding affinity (RBA). 0.6

Proceed to CC(=O)Oc1ccc2c(c1)CC(C)n1c-2c(C=O)c2ccc(OC(C)=O)cc21 (stereo not given) 1.7

Proceed to CCC1Cc2cc(OC(C)=O)ccc2-c2c(C=O)c3cc(OC(C)=O)ccc3n21 (stereo not given) 3.3

====

tested on: MDA-MB-231; assay: Inhibition of hormone-independent MDA-MB 231 mammary tumor cell proliferation at 1*10e-7 M; type: functional, Homo sapiens
Measured T/C values are reported for all entries that follow.
API: value field is a number in %; no unit string.

CCCCC1Cc2cc(OC(C)=O)ccc2-c2c(C=O)c3ccc(OC(C)=O)cc3n21 (stereo not given); 104
CCCC1Cc2cc(OC(C)=O)ccc2-c2c(C=O)c3cc(OC(C)=O)ccc3n21 (stereo not given); 109
CCC1Cc2cc(OC(C)=O)ccc2-c2c(C=O)c3cc(OC(C)=O)ccc3n21 (stereo not given); 106

Given CCCCCC1Cc2cc(OC(C)=O)ccc2-c2c(C=O)c3ccc(OC(C)=O)cc3n21 (stereo not given) , state its recorded T/C. 118

Proceed to CC(=O)Oc1ccc2c(c1)CC(C)n1c-2c(C=O)c2cc(OC(C)=O)ccc21 (stereo not given) 109

Proceed to CCC1Cc2cc(OC(C)=O)ccc2-c2c(C=O)c3ccc(OC(C)=O)cc3n21 (stereo not given) 101

====

target: Estrogen receptor (Mus musculus) (UniProt O08537+P19785); test: Uterotrophic effect in mice as uterine weight(mg) relative to body weight(g) at 10 ug dose; assay type: functional, tissue-based
Hi! Could you tag entries with Relative uterus weight below 20 as T, and those at or above as F? Much appreciated.

Solved entries:
CCC1Cc2cc(OC(C)=O)ccc2-c2c(C=O)c3cc(OC(C)=O)ccc3n21 (stereo not given); T
CC(=O)Oc1ccc2c(c1)CC(C)n1c-2c(C=O)c2ccc(OC(C)=O)cc21 (stereo not given); T
CCCCC1Cc2cc(OC(C)=O)ccc2-c2c(C=O)c3cc(OC(C)=O)ccc3n21 (stereo not given); T
CCCC1Cc2cc(OC(C)=O)ccc2-c2c(C=O)c3cc(OC(C)=O)ccc3n21 (stereo not given); F

# next compound below
Bench note: check whether CCCC1Cc2cc(OC(C)=O)ccc2-c2c(C=O)c3ccc(OC(C)=O)cc3n21 (stereo not given) shows Relative uterus weight below 20 T
